System: Staphylococcus aureus
Experiment: Antibiofilm activity against methicillin-resistant Staphylococcus aureus assessed as inhibition of biofilm formation by measuring residual biofilm growth incubated for overnight at 10-fold dilution by crystal violet staining based microtiter plate assay relative to control
Type: functional
Non-standard residues stand in square brackets, D forms with d. Residues, ends and D or L forms follow the SMILES beside them. hArg = N=C(N)NCCCC[C@H](N)C(=O)O; Agp = N=C(N)NC[C@H](N)C(=O)O; Orn = NCCC[C@H](N)C(=O)O; Dab = NCC[C@H](N)C(=O)O; Dap = NC[C@H](N)C(=O)O
residual biofilm growth (% of control) strictly less than 50% = 1. Otherwise 0.

Completed entries (count: 5):
CC[C@H](C)[C@H](NC(=O)[C@H](CCCNC(=N)N)NC(=O)[C@@H](NC(=O)[C@H](CCN)NC(=O)[C@@H](NC(=O)[C@@H](NC(=O)[C@H](CC(C)C)NC(=O)[C@H](CCCNC(=N)N)NC(=O)[C@@H](N)C(C)C)[C@@H](C)CC)C(C)C)C(C)C)C(=O)N[C@@H](Cc1c[nH]c2ccccc12)C(=O)N[C@@H](CCCNC(=N)N)C(=O)N[C@@H](CCCNC(=N)N)C(N)=O (H-VRLIV[Dab]VRIWRR-NH2)	0
CC[C@H](C)[C@H](NC(=O)[C@H](CC(C)C)NC(=O)[C@H](CCCNC(=N)N)NC(=O)[C@@H](N)C(C)C)C(=O)N[C@@H](CCN)C(=O)N[C@@H](C)C(=O)N[C@H](C(=O)N[C@@H](CCCNC(=N)N)C(=O)N[C@H](C(=O)N[C@@H](Cc1c[nH]c2ccccc12)C(=O)N[C@@H](CCCNC(=N)N)C(=O)N[C@@H](CCCNC(=N)N)C(N)=O)[C@@H](C)CC)C(C)C (H-VRLI[Dab]AVRIWRR-NH2)	0
CC[C@H](C)[C@H](NC(=O)[C@H](CN)NC(=O)[C@@H](NC(=O)[C@H](C)NC(=O)[C@@H](NC(=O)[C@@H](NC(=O)[C@H](CC(C)C)NC(=O)[C@H](CCCNC(=N)N)NC(=O)[C@@H](N)C(C)C)[C@@H](C)CC)C(C)C)C(C)C)C(=O)N[C@@H](Cc1c[nH]c2ccccc12)C(=O)N[C@@H](CCCNC(=N)N)C(=O)N[C@@H](CCCNC(=N)N)C(N)=O (H-VRLIVAV[Dap]IWRR-NH2)	1
CC[C@H](C)[C@H](NC(=O)[C@H](CC(C)C)NC(=O)[C@H](CCCNC(=N)N)NC(=O)[C@@H](N)C(C)C)C(=O)N[C@@H](CNC(=N)N)C(=O)N[C@@H](C)C(=O)N[C@H](C(=O)N[C@@H](CCCNC(=N)N)C(=O)N[C@H](C(=O)N[C@@H](Cc1c[nH]c2ccccc12)C(=O)N[C@@H](CCCNC(=N)N)C(=O)N[C@@H](CCCNC(=N)N)C(N)=O)[C@@H](C)CC)C(C)C (H-VRLI[Agp]AVRIWRR-NH2)	0
CC[C@H](C)[C@H](NC(=O)[C@H](CCCNC(=N)N)NC(=O)[C@H](CN)NC(=O)[C@H](C)NC(=O)[C@@H](NC(=O)[C@@H](NC(=O)[C@H](CC(C)C)NC(=O)[C@H](CCCNC(=N)N)NC(=O)[C@@H](N)C(C)C)[C@@H](C)CC)C(C)C)C(=O)N[C@@H](Cc1c[nH]c2ccccc12)C(=O)N[C@@H](CCCNC(=N)N)C(=O)N[C@@H](CCCNC(=N)N)C(N)=O (H-VRLIVA[Dap]RIWRR-NH2)	0

Item CC[C@H](C)[C@H](NC(=O)[C@H](CCCNC(=N)N)NC(=O)[C@@H](NC(=O)[C@H](C)NC(=O)[C@@H](NC(=O)[C@@H](NC(=O)[C@H](CNC(=N)N)NC(=O)[C@H](CCCNC(=N)N)NC(=O)[C@@H](N)C(C)C)[C@@H](C)CC)C(C)C)C(C)C)C(=O)N[C@@H](Cc1c[nH]c2ccccc12)C(=O)N[C@@H](CCCNC(=N)N)C(=O)N[C@@H](CCCNC(=N)N)C(N)=O (H-VR[Agp]IVAVRIWRR-NH2) : residual biofilm growth (% of control) beneath 50%, strictly?
0

Item CC[C@H](C)[C@H](NC(=O)[C@H](CCCNC(=N)N)NC(=O)[C@@H](NC(=O)[C@H](CCCN)NC(=O)[C@@H](NC(=O)[C@@H](NC(=O)[C@H](CC(C)C)NC(=O)[C@H](CCCNC(=N)N)NC(=O)[C@@H](N)C(C)C)[C@@H](C)CC)C(C)C)C(C)C)C(=O)N[C@@H](Cc1c[nH]c2ccccc12)C(=O)N[C@@H](CCCNC(=N)N)C(=O)N[C@@H](CCCNC(=N)N)C(N)=O (H-VRLIV[Orn]VRIWRR-NH2) : residual biofilm growth (% of control) beneath 50%, strictly?
1

Item CC[C@H](C)[C@H](NC(=O)[C@H](CCCNC(=N)N)NC(=O)[C@@H](NC(=O)[C@H](C)NC(=O)[C@@H](NC(=O)[C@@H](NC(=O)[C@H](CC(C)C)NC(=O)[C@H](CCCN)NC(=O)[C@@H](N)C(C)C)[C@@H](C)CC)C(C)C)C(C)C)C(=O)N[C@@H](Cc1c[nH]c2ccccc12)C(=O)N[C@@H](CCCNC(=N)N)C(=O)N[C@@H](CCCNC(=N)N)C(N)=O (H-V[Orn]LIVAVRIWRR-NH2) : residual biofilm growth (% of control) beneath 50%, strictly?
1

Item CC[C@H](C)[C@H](NC(=O)[C@H](CCCNC(=N)N)NC(=O)[C@@H](NC(=O)[C@H](C)NC(=O)[C@@H](NC(=O)[C@@H](NC(=O)[C@H](CC(C)C)NC(=O)[C@H](CCCNC(=N)N)NC(=O)[C@@H](N)CNC(=N)N)[C@@H](C)CC)C(C)C)C(C)C)C(=O)N[C@@H](Cc1c[nH]c2ccccc12)C(=O)N[C@@H](CCCNC(=N)N)C(=O)N[C@@H](CCCNC(=N)N)C(N)=O (H-[Agp]RLIVAVRIWRR-NH2) : residual biofilm growth (% of control) beneath 50%, strictly?
1

Item CC[C@H](C)[C@H](NC(=O)[C@H](CCCNC(=N)N)NC(=O)[C@@H](NC(=O)[C@H](C)NC(=O)[C@@H](NC(=O)[C@@H](NC(=O)[C@H](CCCCNC(=N)N)NC(=O)[C@H](CCCNC(=N)N)NC(=O)[C@@H](N)C(C)C)[C@@H](C)CC)C(C)C)C(C)C)C(=O)N[C@@H](Cc1c[nH]c2ccccc12)C(=O)N[C@@H](CCCNC(=N)N)C(=O)N[C@@H](CCCNC(=N)N)C(N)=O (H-VR[hArg]IVAVRIWRR-NH2) : residual biofilm growth (% of control) beneath 50%, strictly?
0
